# Tested on: Trypanosoma cruzi
# measurement.protocol: Trypanosoma cruzi phosphomannomutase and mannose-1-phosphate guanylyltransferase assay
# Type: functional
# Parameters: scale not given: direction of the effect not stated beside the values
# measurement.parameters: 10 µM
I'd appreciate it if you could supply Percent Effect values for the items below.
Numbers only here, please. The scale is %.

# Percent Effect of CC(C)c1ccc(O)c(C(=O)N2CCN(Cc3cscn3)CC2)c1 = 5.85

# Percent Effect of O=C1CC(c2ccc(C(=O)O)cc2)c2ncn(-c3cccc(F)c3)c2N1 (stereo unspecified) = -4.13

# Percent Effect of CSc1ccc(Cl)c(C(=O)N2CCCC(CNS(C)(=O)=O)C2)c1 (stereo unspecified) = 1.12

# Percent Effect of C[C@H]1C[C@H]2CN(C(=O)c3ccncn3)CC[C@H]2O1 = 2.54

# Percent Effect of CCc1nnc(CNCC2CCN(CC(O)c3ccccc3)CC2)o1 (stereo unspecified) = -2.15

# Percent Effect of O=C(N1CCCC1)N1CCc2ncnc(C3CCOC3)c2CC1 (stereo unspecified) = -0.591

---

# target: Arginase-2, mitochondrial (Homo sapiens) (UniProt P78540)
# Sequence (P78540 whole entry): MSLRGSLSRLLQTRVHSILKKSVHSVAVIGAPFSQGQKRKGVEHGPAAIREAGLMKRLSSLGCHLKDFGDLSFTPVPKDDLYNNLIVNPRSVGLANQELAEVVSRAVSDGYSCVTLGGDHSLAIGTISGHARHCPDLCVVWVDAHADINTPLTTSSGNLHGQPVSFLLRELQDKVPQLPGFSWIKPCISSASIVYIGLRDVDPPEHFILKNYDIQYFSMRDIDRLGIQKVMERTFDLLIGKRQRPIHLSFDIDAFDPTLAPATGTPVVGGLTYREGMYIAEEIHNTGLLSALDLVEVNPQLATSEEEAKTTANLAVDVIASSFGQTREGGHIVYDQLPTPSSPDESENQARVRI
# measurement.protocol: in vitro enzyme assay to detect the production of urea directly proportional to the activity of Arginase II; also: in the data most compounds retested in dose-response had high values
# Type: functional
# Design: scale not given: direction of the effect not stated beside the values
# measurement.parameters: 33.3 µM
I'd appreciate it if you could supply Percent Effect values for the items below.
Numbers only here, please. The scale is %.

# Percent Effect of CCc1cc(C(=O)N2CCCC2c2nc(C)c(F)c(O)n2)on1 (stereo not given) = -3.54

# Percent Effect of C[C@]1(O)CCN(Cc2cncs2)C[C@@H]1Oc1cccc(F)c1 = 3.1

# Percent Effect of COc1ccc(-c2noc(CNC(C)Cn3cccn3)n2)c(OC)c1 (stereo not given) = -2.52

# Percent Effect of Cn1ncc2c1C(COCC1CC1)CN(Cc1nccs1)C2 (stereo not given) = 5.81

# Percent Effect of Cc1cc(C)n(CC2CCCN2CC(=O)NC2CCOCC2)n1 (stereo not given) = 2.13

# Percent Effect of O=S(=O)(CCCN1CCCC1Cn1cccn1)c1ccccc1 (stereo not given) = -0.205

# Percent Effect of O=C1CCCCN1c1cccc(CNC2CCCC2)c1 = 2.74

# Percent Effect of O=C(Nc1nncs1)NC1CCOc2ccccc21 (stereo not given) = -0.399

# Percent Effect of CC(C)N1CCN(C(=O)Nc2cnn(CC(N)=O)c2)CC1 = 0

# Percent Effect of CC(=O)N1CCC2(CC1)COCCN2CCN(C)C = -26.3

# Percent Effect of Cc1ccc(C(N)c2cccc(S(C)(=O)=O)c2)cc1 (stereo not given) = 5.76

# Percent Effect of CCn1cc(CN2CCc3nc(N4CCOCC4)nc(O)c3CC2)cn1 = -6.26

# Percent Effect of O=C1CC(c2ccncc2)C2(CCN(CCO)CC2)N1 (stereo not given) = -3.64

# Percent Effect of Cc1ccc(OCC(=O)NS(=O)(=O)c2c(C)noc2C)cc1C = 0.41

# Percent Effect of c1ccc(-c2nc(CN3CCOC(Cn4cccn4)C3)no2)cc1 (stereo not given) = 4.43

# Percent Effect of Cc1noc(C)c1CCC(=O)N1CCCN(Cc2cscn2)CC1 = 6.9

# Percent Effect of CCC(NC(=O)CC(F)(F)F)c1ccccc1OCC(=O)N1CCCC1 (stereo not given) = 0

# Percent Effect of CSc1ccccc1CN1CCCn2nc(CNC(=O)N(C)C)cc2C1 = 4.09

# Percent Effect of CC(C)c1ncc2c(n1)CN(Cc1nc(-c3ccoc3)no1)CC2 = -0.185

# Percent Effect of O=C(CSc1ccccn1)N1C[C@H]2CC[C@@H]1CN(Cc1cscn1)C2 = -0.35

# Percent Effect of CCn1cc(CN2CCCN(C(=O)c3sccc3C#N)CC2)cn1 = -1.14

# Percent Effect of Cc1csc(N2CCN(Cc3cnc(C)s3)CC2C)n1 (stereo not given) = 1.36

# Percent Effect of Cn1cnc2c1C(COCC1CCOCC1)CN(C(=O)c1ccoc1)C2 (stereo not given) = -1.63

# Percent Effect of CNC(=O)CCCNCc1c(C)nn(C)c1N(C)C = 2.87

# Percent Effect of CCOC(=O)[C@]12CCCN(Cc3nccs3)C[C@H]1CN(C(C)=O)C2 = -0.645

Values compiled from ChEMBL document CHEMBL3988442.
